Each entry below carries its reported IC50.
Target: PLK4 (Homo sapiens)
Sequence (O00444 1-970): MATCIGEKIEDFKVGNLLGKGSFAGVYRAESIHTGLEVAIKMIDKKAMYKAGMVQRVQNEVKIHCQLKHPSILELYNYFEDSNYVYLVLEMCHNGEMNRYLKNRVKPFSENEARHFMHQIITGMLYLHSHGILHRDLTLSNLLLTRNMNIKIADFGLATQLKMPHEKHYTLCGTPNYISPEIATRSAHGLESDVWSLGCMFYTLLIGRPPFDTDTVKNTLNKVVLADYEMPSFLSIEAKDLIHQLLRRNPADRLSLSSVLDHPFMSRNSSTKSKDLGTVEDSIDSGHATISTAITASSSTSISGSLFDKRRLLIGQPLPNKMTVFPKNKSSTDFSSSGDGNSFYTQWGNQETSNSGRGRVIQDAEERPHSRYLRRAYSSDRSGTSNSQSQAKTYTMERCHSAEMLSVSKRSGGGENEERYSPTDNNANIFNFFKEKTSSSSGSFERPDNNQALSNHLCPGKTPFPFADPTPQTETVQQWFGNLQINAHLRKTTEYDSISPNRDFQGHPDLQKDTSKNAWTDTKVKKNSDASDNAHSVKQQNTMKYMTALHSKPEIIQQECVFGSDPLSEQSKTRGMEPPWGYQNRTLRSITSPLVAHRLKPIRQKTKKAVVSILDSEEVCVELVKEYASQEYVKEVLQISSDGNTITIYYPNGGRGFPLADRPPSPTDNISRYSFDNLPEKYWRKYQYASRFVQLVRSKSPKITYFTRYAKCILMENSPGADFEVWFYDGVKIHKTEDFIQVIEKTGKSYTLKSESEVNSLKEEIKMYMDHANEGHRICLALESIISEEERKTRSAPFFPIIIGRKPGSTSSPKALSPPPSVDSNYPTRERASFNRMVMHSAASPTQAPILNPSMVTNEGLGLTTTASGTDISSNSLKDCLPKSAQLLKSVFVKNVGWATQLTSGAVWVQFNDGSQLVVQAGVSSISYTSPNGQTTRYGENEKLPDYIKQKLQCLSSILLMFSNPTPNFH

Examples from the recorded data:
CC(=O)Nc1ccc(Sc2nc(Nc3cc(C)[nH]n3)c(Cl)c(N3CCCCC3)n2)cc1 :: < 100 nM
COc1c(Nc2cc(C)[nH]n2)nc(Sc2ccc(S(=O)(=O)N(C)C)cc2)nc1N1CCN(CCN(C)C)CC1 :: < 100 nM
COc1c(Nc2cc(C)[nH]n2)nc(Sc2ccc(NC(C)=O)cc2)nc1N1CCC(CC(=O)N(C)C)CC1 :: < 100 nM
COc1c(Nc2cc(C)[nH]n2)nc(Sc2ccc(S(=O)(=O)C(C)(C)c3c(F)c(F)cc(F)c3F)cc2F)nc1N1CCC(CCNC(C)=O)CC1 :: < 100 nM
COc1c(Nc2ncc(C)s2)nc(Sc2ccc(NC(C)=O)cc2)nc1N1CCN(CCN(C)C)CC1 :: < 100 nM

-- ask // returns reported IC50 for input COc1c(Nc2cc(C)[nH]n2)nc(Sc2ccc(S(=O)(=O)C(C)(C)c3c(F)c(F)c(F)c(F)c3F)cc2F)nc1N1CCC(N(C)C)CC1
-- reply < 100 nM

-- ask What measured IC50 goes with COc1c(Nc2cc(C)[nH]n2)nc(Sc2ccc(S(=O)(=O)Nc3cccc([N+](=O)[O-])c3)cc2F)nc1N1CCOCC1 ?
-- reply < 100 nM

-- ask Find the recorded IC50 belonging to COc1c(Nc2cc(C)[nH]n2)nc(Sc2ccc(NC(C)=O)cc2)nc1N1CCN(CCN(C)C)C(C)C1 (centres unmarked) and report it.
-- reply < 100 nM
